Tested on: Human alphaherpesvirus 1
protocol_details: Antiviral activity against HSV-1 106 infected in African green monkey Vero cells assessed as reduction in virus induced cytopathogenicity by plaque reduction assay
Format: functional, organism-based
run_parameters: Human alphaherpesvirus 1, 106, Vero
Square brackets hold non-standard residues; d marks the D form. Peptide text beside a SMILES is read from it. dNMeY = CN[C@H](Cc1ccc(O)cc1)C(=O)O
readout_kind: EC50

compound: COc1ccc(C[C@@H]2NC(=O)[C@@H]3CCCN3C(=O)[C@H](C(C)C)NC(=O)[C@@H](Cc3ccc(O)cc3)N(C)C(=O)[C@H](Cc3ccc(OC)cc3)NC2=O)cc1 (cyclo(PY(Me)Y(Me)[dNMeY]V))
reported: 10.4 µM
